Kindly state IC50 for each of the entries shown.
# system tested: RIPK2 (full length FLAG His tagged) (Homo sapiens, UniProt O43353)
# Construct: Full length FLAG His tagged RIPK2 was purified from a Baculovirus expression system; FLAG (N); 6His (N); made in house; host or cells: Spodoptera frugiperda (Sf9) insect cells, baculovirus
# Sequence (O43353 whole entry): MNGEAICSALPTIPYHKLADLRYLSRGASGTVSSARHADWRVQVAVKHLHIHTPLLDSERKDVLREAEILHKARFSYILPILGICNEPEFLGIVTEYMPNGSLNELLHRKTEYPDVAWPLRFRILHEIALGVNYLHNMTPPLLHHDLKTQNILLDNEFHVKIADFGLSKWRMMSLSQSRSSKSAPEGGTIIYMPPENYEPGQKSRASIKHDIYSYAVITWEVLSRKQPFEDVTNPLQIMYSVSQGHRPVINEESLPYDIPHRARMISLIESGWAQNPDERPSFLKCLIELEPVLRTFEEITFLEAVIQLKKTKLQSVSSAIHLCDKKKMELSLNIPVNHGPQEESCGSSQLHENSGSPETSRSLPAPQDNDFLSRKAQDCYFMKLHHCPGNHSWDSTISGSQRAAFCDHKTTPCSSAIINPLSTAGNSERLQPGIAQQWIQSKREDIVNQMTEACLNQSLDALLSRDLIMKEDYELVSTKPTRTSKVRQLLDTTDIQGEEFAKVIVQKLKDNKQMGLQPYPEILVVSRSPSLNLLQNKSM
# assay summary: Fluorescent polarization based binding assay at the ATP binding pocket of RIPK2
# test conditions: RIPK2 FP binding; mean of minimum 2 experiments; read-out: pIC50 (converted)
Answers are plain numbers, in nM.

- compound: "CCCOc1cc2ncnc(Nc3n[nH]c(C)c3C)c2cc1S(=O)(=O)C(C)(C)C"
  system tested: "RIPK2 (full length FLAG His tagged) (Homo sapiens, UniProt O43353)"
  unit string: "nM"
  IC50: 12.6
- compound: "COCCOc1cc2ncnc(Nc3n[nH]c(C)c3C)c2cc1S(=O)(=O)C(C)(C)C"
  system tested: "RIPK2 (full length FLAG His tagged) (Homo sapiens, UniProt O43353)"
  unit string: "nM"
  IC50: 39.8

Batch of 2 compounds: report IC50 for each.
1. Cc1[nH]nc(Nc2ncnc3cc(OCC4CCCO4)c(S(=O)(=O)C(C)(C)C)cc23)c1C (stereo not shown)
2. CCOc1cc2ncnc(Nc3n[nH]c(C)c3C)c2cc1S(=O)(=O)C(C)(C)C

[reply]
[10, 15.8]

Origin of the recorded values: patent US9650364B2
